Reference for the values: PubChem BioAssay (NCI)

System: UACC-62 melanoma
Experiment: NCI tumour cell line growth inhibition, 48 h
observed property: TGI

- compound: "c1ccc2cc(C[n+]3ccn(CCCCCCCCCCCCn4cc[n+](Cc5ccc6ccccc6c5)c4)c3)ccc2c1"
  observed property: "TGI"
  obs value: "2.43 µM"
- compound: "COc1cc(OC)c2c(c1)C(=O)C(CC1(C)OCCCO1)=CC2=O"
  observed property: "TGI"
  obs value: "16.2 µM"
- compound: "CNCCCCN(C)/[N+]([O-])=N\\O"
  observed property: "TGI"
  obs value: "> 100 µM"
- compound: "[N-]=[N+]=NCCCn1c2c(c3cc4c(cc3c1=O)OCO4)C(=O)c1ccccc1-2"
  observed property: "TGI"
  obs value: "> 100 µM"
- compound: "O=C(Nc1ccc(OCc2nnc(-c3ccc(Cl)cc3)o2)c(F)c1)c1ccc(Cl)c(C(F)(F)F)c1"
  observed property: "TGI"
  obs value: "> 50 µM"
- compound: "O=S1(=O)OCCOS(=O)(=O)C1(Br)Cc1ccccc1"
  observed property: "TGI"
  obs value: "> 100 µM"
- compound: "C[N+](C)(C)CCN(Cc1cccs1)c1ccccn1"
  observed property: "TGI"
  obs value: "> 100 µM"
- compound: "CN(C)CCNc1ccc2nnn3c4ccccc4c(=O)c1c23"
  observed property: "TGI"
  obs value: "11.6 µM"
- compound: "C/C(=C\\COc1cc(O)c2c(c1)C(=O)c1cc(C)cc(O)c1C2=O)CCC1OC1(C)C (centres undefined)"
  observed property: "TGI"
  obs value: "> 100 µM"
- compound: "CCCCCC(=O)N[C@H]1CCc2cc(O)c(O)c(O)c2-c2ccc(SC)c(=O)cc21"
  observed property: "TGI"
  obs value: "83.4 µM"
- compound: "O=C(N[C@@H](c1ccccc1)[C@@H](O)C(=O)OCc1ccc2c(c1)OCO2)c1ccccc1"
  observed property: "TGI"
  obs value: "> 100 µM"
- compound: "CC(=O)Oc1c(-c2ccccc2)oc2ccccc12"
  observed property: "TGI"
  obs value: "8.49 µM"
- compound: "CC(C)OC(=O)C1=C2c3ncccc3C(=O)N2[C@@H](Cl)[C@H](Cl)[C@H]1Cl"
  observed property: "TGI"
  obs value: "> 100 µM"
- compound: "NC1CCCCC1N.Nc1c(N=Nc2ccc(-c3ccc(N=Nc4cc(S(=O)(=O)[O-])c5ccccc5c4N)cc3)cc2)cc(S(=O)(=O)[O-])c2ccccc12.[OH3+].[OH3+].[Pt+4]"
  observed property: "TGI"
  obs value: "> 100 µM"

----------
Test system: DMS 273 small cell lung
Test: NCI tumour cell line growth inhibition, 48 h
observed property: TGI

- compound: "O=C([O-])c1cc(I)cc(I)c1[OH2+].O=C([O-])c1cc(I)cc(I)c1[OH2+].[Mn+2]"
  observed property: "TGI"
  obs value: "> 100 µM"
- compound: "COC(=O)/C=C/C1C2C3(CCC(C)C12C)OCCS3 (stereo not drawn)"
  observed property: "TGI"
  obs value: "> 100 µM"
- compound: "CC1CCC(=O)NCCCCC(=O)N1 (stereo not drawn)"
  observed property: "TGI"
  obs value: "> 100 µM"
- compound: "COC(=O)/C(=N\\NC(=O)c1ccccc1O)C(C#N)c1ccccc1 (stereo not drawn)"
  observed property: "TGI"
  obs value: "> 50 µM"
- compound: "CCCCCCCCCCCCCCCC/C(C(=O)OC)=C(/O)C(=O)OCC"
  observed property: "TGI"
  obs value: "> 100 µM"
- compound: "CNCC(=O)Nc1ccc2c(c1)C(=O)c1ccc(NC(=O)CNC)cc1C2=O"
  observed property: "TGI"
  obs value: "10.7 µM"
- compound: "CC1CCC2(OCCO2)[C@]2(C)CC(O)C(=O)C=C12 (stereo partly drawn)"
  observed property: "TGI"
  obs value: "> 100 µM"
- compound: "CNCCCCN(C)/[N+]([O-])=N\\O"
  observed property: "TGI"
  obs value: "> 100 µM"
- compound: "COC1=C(OC)C(O)(c2ccccc2)C1=O (stereo not drawn)"
  observed property: "TGI"
  obs value: "> 100 µM"
- compound: "O=S1(=O)OCCOS(=O)(=O)C1(Br)Cc1ccccc1"
  observed property: "TGI"
  obs value: "> 100 µM"
- compound: "O/N=C1/C(=C/c2ccc(Cl)c(Cl)c2)CCCC1C(NO)c1ccc(Cl)c(Cl)c1 (stereo not drawn)"
  observed property: "TGI"
  obs value: "36 µM"
- compound: "O=C(NN1C(=O)C(Cl)C1c1ccc(O)cc1)c1ccccc1O (stereo not drawn)"
  observed property: "TGI"
  obs value: "25.5 µM"
- compound: "COC1OC(COC(C)=O)C(OC(C)=O)C(OC(C)=O)C1NC(=O)N(CCCl)N=O (stereo not drawn)"
  observed property: "TGI"
  obs value: "> 100 µM"
